# target_desc: NDM-1 (Klebsiella pneumoniae, UniProt C7C422)
# Sequence (C7C422 whole entry, looked up, species assumed): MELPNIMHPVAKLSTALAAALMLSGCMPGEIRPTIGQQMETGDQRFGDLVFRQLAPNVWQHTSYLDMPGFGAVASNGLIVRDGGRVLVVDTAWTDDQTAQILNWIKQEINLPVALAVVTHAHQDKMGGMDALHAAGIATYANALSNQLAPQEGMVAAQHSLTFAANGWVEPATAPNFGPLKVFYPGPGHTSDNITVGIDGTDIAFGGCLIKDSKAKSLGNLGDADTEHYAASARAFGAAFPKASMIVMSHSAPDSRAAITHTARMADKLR
# assay_info: biochemical
# Type: biochemical
# conditions_used: fluorescence assay, CCF2-FA substrate, 1 pM enzyme, 2 hours at 25° C.; read-out: NDM-1 IC50
measured_quantity: log10 IC50 (log10 of the value in nM)
Note the log scale: values are log10 of IC50 expressed in nM.

C[C@H](CN)NS(=O)(=O)c1ccc(-c2cccc3sc(N)nc23)c(-c2nnn[nH]2)c1S(N)(=O)=O :: -1.70
Nc1nc2c(-c3ccc(S(=O)(=O)NC[C@]4(N)CCNC4)c(S(N)(=O)=O)c3-c3nn[nH]n3)cccc2[nH]1 :: -1.47

Moving on to the next compound.
Form field: reported log10 IC50 of NCCCNS(=O)(=O)c1ccc(-c2cccc3sc(N)nc23)c(-c2nnn[nH]2)c1S(N)(=O)=O.O=C(O)C(F)(F)F [Example 90, 2,2,2-trifluoroacetate] -1.10
